- experimental.target: T1, human TNFR2 on the cell surface (CHO-TNFR2 cells; human Treg cells) (human, UniProt P20333 23-461)
- T1 construct: whole, on cells; The assay field of each row says which cells; also called TNFR2-CHO cell; TNFR2 on Treg cells
- T1 sequence (looked up): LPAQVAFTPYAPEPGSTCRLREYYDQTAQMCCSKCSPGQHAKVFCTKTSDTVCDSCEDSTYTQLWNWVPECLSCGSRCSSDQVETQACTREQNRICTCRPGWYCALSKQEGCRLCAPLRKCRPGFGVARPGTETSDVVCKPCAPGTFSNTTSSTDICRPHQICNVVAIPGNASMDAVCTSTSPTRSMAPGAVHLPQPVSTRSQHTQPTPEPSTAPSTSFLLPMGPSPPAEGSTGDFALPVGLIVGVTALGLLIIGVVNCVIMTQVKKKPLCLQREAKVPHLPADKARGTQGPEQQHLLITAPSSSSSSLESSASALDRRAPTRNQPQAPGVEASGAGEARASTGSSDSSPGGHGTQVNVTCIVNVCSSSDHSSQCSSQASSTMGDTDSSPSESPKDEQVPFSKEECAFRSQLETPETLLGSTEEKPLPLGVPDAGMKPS
- experiment.summary: flow cytometry, blocking of TNFα-biotin on CHO-TNFR2 cells; against 002#
Reported IC50 Relative Value % values are given for each entry in this list.
Only the number, expressed in %, is required.

binder	IC50 Relative Value % [%]
TNFR2 antibody #125 (antibody, V domains shown) VH: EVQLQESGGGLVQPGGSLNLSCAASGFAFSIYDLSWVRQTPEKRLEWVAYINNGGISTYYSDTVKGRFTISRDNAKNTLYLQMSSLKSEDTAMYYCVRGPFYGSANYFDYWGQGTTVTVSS VL: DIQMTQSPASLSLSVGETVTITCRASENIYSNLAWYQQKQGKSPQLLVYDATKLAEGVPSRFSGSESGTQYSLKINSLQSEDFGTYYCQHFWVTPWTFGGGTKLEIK	165
TNFR2 antibody #365 (antibody, V domains shown) VH: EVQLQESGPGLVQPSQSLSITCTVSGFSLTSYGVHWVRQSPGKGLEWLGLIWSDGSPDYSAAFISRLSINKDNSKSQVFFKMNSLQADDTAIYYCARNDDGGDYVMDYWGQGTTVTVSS VL: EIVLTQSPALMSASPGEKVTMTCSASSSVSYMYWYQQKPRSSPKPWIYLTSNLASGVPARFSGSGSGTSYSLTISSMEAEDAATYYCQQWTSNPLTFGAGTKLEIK	232

// moving on: another record for IC50 Relative Value %
Need IC50 Relative Value % of TNFR2 antibody #352 (antibody, V domains shown) VH: EVQLQESGPGLVAPSQSLSITCTVSGFSLTSYGVHWVRQPPGKGLEWLVVIWSDGGTTYNSALKSRLSISKDNSKSQVFLKMNSLQTDDTAMYYCARHDDDGYYAMDYWGQGTTVTVSS VL: DIVLTQSPSLMSASPGEKVTMTCSASSSVGYMYWYQQKPRSSPKPWIYLTSNLASGVPARFSGSGSGTSYSLTISSMEVEDAATYYCQQWSSDPFTFGSGTKLEIK , thanks. 171
